pIC50: −log10 of the molar value.
// values below are pIC50; system is JMJD3 (Homo sapiens)
Sequence (O15054 1043-1682 isoform O15054-1): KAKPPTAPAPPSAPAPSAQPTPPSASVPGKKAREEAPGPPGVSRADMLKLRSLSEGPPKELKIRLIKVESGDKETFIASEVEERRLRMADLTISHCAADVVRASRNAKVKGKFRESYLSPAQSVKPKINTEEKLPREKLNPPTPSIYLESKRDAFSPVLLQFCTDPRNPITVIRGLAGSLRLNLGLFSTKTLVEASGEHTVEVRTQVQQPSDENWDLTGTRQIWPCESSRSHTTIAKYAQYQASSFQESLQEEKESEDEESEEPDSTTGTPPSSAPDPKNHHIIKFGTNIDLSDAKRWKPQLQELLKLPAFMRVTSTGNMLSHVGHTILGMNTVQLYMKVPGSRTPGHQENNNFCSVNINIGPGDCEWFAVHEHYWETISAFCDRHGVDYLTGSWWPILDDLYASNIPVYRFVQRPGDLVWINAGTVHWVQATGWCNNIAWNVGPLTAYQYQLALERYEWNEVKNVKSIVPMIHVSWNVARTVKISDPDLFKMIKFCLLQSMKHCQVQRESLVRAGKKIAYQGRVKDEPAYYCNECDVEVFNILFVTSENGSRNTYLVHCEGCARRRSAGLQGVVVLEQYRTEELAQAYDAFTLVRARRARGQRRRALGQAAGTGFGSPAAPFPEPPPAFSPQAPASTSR

Compound	pIC50
Fc1cnccc1-c1nn[nH]c1C(F)(F)F [Example 1]	< 5.00
Fc1ccc(Cl)cc1Nc1cnccc1-c1nn[nH]c1C(F)(F)F [Example 2]	< 5.00

Query compound follows.
pIC50 value, target or system JMJD3 (Homo sapiens), for FC(F)(F)c1[nH]nnc1-c1ccncc1NCC1CCCc2ccccc21 (stereo not drawn) [Example 3] : < 5.00

----------
Target Desc: FBXL10 (Homo sapiens)
Construct: purchased BPS Bioscience 50120
Sequence (Q8NHM5 1-650): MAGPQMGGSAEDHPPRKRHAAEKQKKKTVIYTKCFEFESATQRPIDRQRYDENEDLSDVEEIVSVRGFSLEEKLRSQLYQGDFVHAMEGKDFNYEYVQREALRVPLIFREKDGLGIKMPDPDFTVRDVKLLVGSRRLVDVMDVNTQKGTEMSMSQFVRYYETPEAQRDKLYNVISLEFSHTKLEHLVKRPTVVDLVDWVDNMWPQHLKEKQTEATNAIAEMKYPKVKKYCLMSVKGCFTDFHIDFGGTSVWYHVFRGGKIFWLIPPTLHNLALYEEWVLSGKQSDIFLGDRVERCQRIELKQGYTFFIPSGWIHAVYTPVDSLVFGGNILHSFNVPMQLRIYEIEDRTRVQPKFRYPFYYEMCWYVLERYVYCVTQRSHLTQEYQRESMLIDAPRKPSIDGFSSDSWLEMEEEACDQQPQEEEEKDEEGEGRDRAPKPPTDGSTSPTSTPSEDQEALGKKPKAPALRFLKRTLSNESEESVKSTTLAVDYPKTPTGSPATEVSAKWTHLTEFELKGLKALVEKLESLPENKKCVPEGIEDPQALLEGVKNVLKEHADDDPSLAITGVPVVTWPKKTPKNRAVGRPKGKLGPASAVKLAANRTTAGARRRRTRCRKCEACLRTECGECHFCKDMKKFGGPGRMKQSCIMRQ
Experiment: FBXL10 in vitro enzyme inhibition assay (AlphaScreen)
Assay type: biochemical
Experimental Parameters: 0.3 nM FBXL10, 30 nM H3K36me2-biotin peptide, 0.2 μM alpha-ketoglutaric acid
pIC50: −log10 of the molar value.
Observed Property: pIC50

# pIC50 (molecule: FC(F)(F)c1[nH]nnc1-c1ccncc1NCC1CCCc2ccccc21 (stereo not shown) [Example 3] ) is 5.00 to 6.00
